Numbers sourced from PubChem BioAssay (EPA / NIEHS).

assayed_system: CCAAT/enhancer-binding protein beta (Homo sapiens)
assay_details: ATG_C_EBP_CIS: Attagene CIS-FACTORIAL HepG2 Assay for human CCAAT/Enhancer Binding Protein (C/EBP) beta (AID 2282927)
experimental_conditions: HepG2 Attagene cis-factorial transcription factor reporter; actives raise or lower the signal
The source made the active and inactive calls. Rule for the calls: active = hit-call score of the fitted dose curve at least 0.9, where 1 is the maximum; inactive = score below 0.9.
Write down one outcome, taken from 1.0 = active, 0.0 = inactive

See these solved cases before continuing.
# molecule, cat
rows = [
    ("CCCCCCCCCCCCCCCO", 0.0),
    ("C1N2CN3CN1CN(C2)C3", 0.0),
    ("COCCOCCOCCOC", 0.0),
    ("CN(C)c1ccc(Cc2ccc(N(C)C)cc2)cc1", 0.0),
    ("CC(C)CCO", 0.0),
]

For O=C(O)c1cccc(N(Cc2cccnc2)c2ccc(OC(F)F)c(OC(F)F)c2)c1 , what call appears in the results of this test?
0.0

Please give the result for Nc1ccc(Nc2ccccc2)cc1 too.
0.0

Please give the result for O=c1n(CC2CO2)c(=O)n(CC2CO2)c(=O)n1CC1CO1 (stereo unspecified) too.
1.0

Please give the result for Oc1ccc2c(c1)-c1ccccc1C2 too.
1.0

Please give the result for CC(C)=CCCC(C)=CC=O too.
0.0

Please give the result for COC(=O)CC(=O)OC too.
0.0

* * *

assay_details: APR_HepG2_NuclearSize_24hr: Apredica 24-hour HepG2 Assay for Nuclear Size (AID 2282907)
experimental_conditions: high-content imaging, actives raise or lower the signal
The source made the active and inactive calls. The calls were made as follows: active = hit-call score of the fitted dose curve at least 0.9, where 1 is the maximum; inactive = score below 0.9.
Write down one outcome, taken from 1 (yes) for active, 0 (no) for inactive

See these solved cases before continuing.
# compound, cat
measured = [
    ("CCC(C)(C)C(=O)O[C@H]1C[C@@H](C)C=C2C=C[C@H](C)[C@H](CC[C@@H]3C[C@@H](O)CC(=O)O3)[C@H]21", "0 (no)"),
    ("O=P(OC(CCl)CCl)(OC(CCl)CCl)OC(CCl)CCl", "1 (yes)"),
    ("O=C1CCC(N2C(=O)c3ccccc3C2=O)C(=O)N1 (centres undefined)", "0 (no)"),
]

For CC(C)=CCC/C(C)=C\CO , what call appears in the results of this test?
0 (no)

Please give the result for CC(C)=CCCC(C)CCO (centres undefined) too.
0 (no)

Please give the result for CCCCC(CC)COC(=O)c1ccc(C(=O)OCC(CC)CCCC)cc1 (centres undefined) too.
0 (no)

Please give the result for CC1=CC(=O)CC(C)(C)C1 too.
0 (no)

Please give the result for CN(C)c1ccc(N=NS(=O)(=O)O)cc1 too.
0 (no)

Please give the result for Cc1c(-c2cccnc2)c2ccccc2n1CCCCC(=O)O too.
0 (no)

* * *

Read-out: Heat shock 70 kDa protein 1 (HSPA1A), gene 3303
assay_details: LTEA_HepaRG_HSPA1A: Life Technologies and Expression Analysis (LTEA) Assay for Heat shock 70 kDa protein 1 (HSPA1A) using HepaRG (AID 2283502)
experimental_conditions: mRNA level, 48 h; actives raise or lower the signal
Experimental: LTEA_HepaRG is a cell based, multiplexed-readout assay that uses HepaRG, a human liver cell line, with measurements taken at 48 hours after chemical dosing on a 96-well plate.LTEA_HepaRG_HSPA1A is one of 102 assay component(s) measured in the LTEA HepaRG cell culture assay. It is a marker of Oxidative Stress.Data from the assay component LTEA_HepaRG_HSPA1A was analyzed into 1 endpoint. […]
The source made the active and inactive calls. The calls were made as follows: active = hit-call score of the fitted dose curve at least 0.9, where 1 is the maximum; inactive = score below 0.9.
Write down one outcome, taken from active, inactive

See these solved cases before continuing.
# compound, cat
measured = [
    ("O=C(O)c1cccc(N(Cc2cccnc2)c2ccc(OC(F)F)c(OC(F)F)c2)c1", "inactive"),
    ("CCNc1ccccc1", "inactive"),
    ("CCCCCCc1ccc(O)cc1O", "inactive"),
    ("CC1=CC(=O)CC(C)(C)C1", "inactive"),
    ("CCCC(=O)OCC", "inactive"),
]

For CC(C)CCCCCCOC(=O)c1ccc(C(=O)OCCCCCCC(C)C)c(C(=O)OCCCCCCC(C)C)c1 , what call appears in the results of this test?
inactive

Please give the result for CNS(=O)(=O)c1cc(C(=O)N2CCC(CCN3C4CCC3CC(n3c(C)nc5ccccc53)C4)(c3cccc(F)c3)CC2)c(Cl)cc1F (stereo not drawn) too.
inactive

Please give the result for Fc1ccccc1[C@@H](F)COC1CCC(Nc2ncnc3[nH]ncc23)CC1 (stereo partly drawn) too.
active

Please give the result for CCCCC(CC)COC(=O)CCCCCCCCC(=O)OCC(CC)CCCC (stereo not drawn) too.
inactive

Please give the result for C1=CCCC=CCCC=CCC1 too.
inactive

Please give the result for CC(C)(O)c1coc(S(=O)(=O)NC(=O)Nc2c3c(cc4c2CCC4)CCC3)c1 too.
inactive

Please give the result for CN(C)c1ccc(Cc2ccc(N(C)C)cc2)cc1 too.
inactive

Please give the result for C=CCCCCCCCCC(=O)O too.
inactive

Please give the result for O=P(OC(CCl)CCl)(OC(CCl)CCl)OC(CCl)CCl too.
inactive

Please give the result for CCn1nc(Cc2ccccc2)cc1C1CCN(C[C@H]2C[C@H](N(C)[C@@H](C(=O)O)C(C)C)C[C@@H]2c2cccc(F)c2)CC1 too.
inactive

Please give the result for Cc1ccc(C)c(O)c1 too.
inactive
